Here the recorded MIC is given for each entry.
- System: Pseudomonas aeruginosa ATCC 9027
- method: ≥ marks a high value that may be exact or a test limit, other limits are often not marked, values filed in µg/mL are converted to µM
Lab book: enter the figure in µM, no units written.

INSERT INTO assay_data (mol, result) VALUES
  ('CC[C@H](C)[C@H](N)C(=O)N[C@@H](Cc1c[nH]c2ccccc12)C(=O)N[C@@H](CCCN=C(N)N)C(=O)N[C@@H](Cc1c[nH]c2ccccc12)C(=O)N[C@@H](Cc1c[nH]c2ccccc12)C(=O)N[C@@H](Cc1c[nH]c2ccccc12)C(=O)N[C@@H](CCCN=C(N)N)C(=O)N[C@@H](Cc1c[nH]c2ccccc12)C(=O)N[C@H](C(N)=O)[C@@H](C)CC', 32),
  ('CC(C)C[C@H](NC(=O)[C@H](CC(C)C)NC(=O)[C@H](CCCCN)NC(=O)[C@H](CCCCN)NC(=O)[C@H](CC(C)C)NC(=O)[C@H](CC(C)C)NC(=O)[C@H](CCCCN)NC(=O)[C@H](CCCCN)NC(=O)[C@H](CC(C)C)NC(=O)[C@H](CC(C)C)NC(=O)[C@H](CCCCN)NC(=O)[C@H](CCCCN)NC(=O)[C@H](CC(C)C)NC(=O)[C@@H](N)CC(C)C)C(=O)N[C@@H](CCCCN)C(=O)N[C@@H](CCCCN)C(N)=O', 3.23);

Asked: Need MIC of `CC(C)[C@H](NC(=O)[C@H](CCCCN)NC(=O)[C@@H](NC(=O)[C@H](CCCCN)NC(=O)[C@H](Cc1ccccc1)NC(=O)[C@H](CCCCN)NC(=O)[C@@H](NC(=O)[C@H](CCCCN)NC(=O)[C@@H](N)Cc1ccccc1)C(C)C)C(C)C)C(=O)N[C@@H](CCCCN)C(=O)O` , thanks.
Given back: 4.8

----------
// endpoint MIC / system Staphylococcus aureus ATCC BAA-1556

INSERT INTO assay_data (mol, result) VALUES
  ('CC(C)C[C@H](NC(=O)[C@H](CC(C)C)NC(=O)[C@H](CCCCN)NC(=O)[C@H](CC(C)C)NC(=O)[C@H](CC(C)C)NC(=O)[C@@H](N)Cc1c[nH]c2ccccc12)C(N)=O', '≥ 100 µM'),
  ('CC(C)C[C@H](NC(=O)[C@H](Cc1c[nH]c2ccccc12)NC(=O)[C@H](Cc1c[nH]c2ccccc12)NC(=O)[C@H](CC(C)C)NC(=O)[C@H](CCCN=C(N)N)NC(=O)[C@H](Cc1c[nH]c2ccccc12)NC(=O)[C@H](CC(C)C)NC(=O)[C@H](Cc1c[nH]c2ccccc12)NC(=O)[C@@H](N)Cc1c[nH]c2ccccc12)C(N)=O', '3.12 µM'),
  ('CC(C)C[C@H](NC(=O)[C@H](CCCCN)NC(=O)[C@H](CC(C)C)NC(=O)[C@H](CC(C)C)NC(=O)[C@H](CC(C)C)NC(=O)[C@H](CC(C)C)NC(=O)[C@H](CC(C)C)NC(=O)[C@@H](N)CC(C)C)C(=O)N[C@@H](CCCCN)C(N)=O', '≥ 100 µM'),
  ('CC(C)C[C@H](NC(=O)[C@H](CC(C)C)NC(=O)[C@H](CC(C)C)NC(=O)[C@H](CC(C)C)NC(=O)[C@H](CC(C)C)NC(=O)[C@H](CC(C)C)NC(=O)[C@H](CC(C)C)NC(=O)[C@@H](N)CCCCN)C(=O)N[C@@H](CCCCN)C(N)=O', '≥ 100 µM');

Now turn to the next molecule.
Asked: # input molecule: `CC(C)C[C@H](NC(=O)[C@H](CC(C)C)NC(=O)[C@H](CC(C)C)NC(=O)[C@H](CCCCN)NC(=O)[C@H](CC(C)C)NC(=O)[C@H](CC(C)C)NC(=O)[C@H](CC(C)C)NC(=O)[C@H](CCCCN)NC(=O)[C@@H](N)CC(C)C)C(N)=O` ; wanted: its MIC
Given back: ≥ 100 µM

----------
Test system Candida albicans F7-39/IDE99, MIC listed for each of the molecules.
Output spec: scalar in µM, unitless text.

INSERT INTO measurements (mol, tested_system, value_kind, result) VALUES
  ('CC[C@H](C)[C@H](NC(=O)CN)C(=O)N[C@@H](CC(C)C)C(=O)N[C@@H](CO)C(=O)N[C@@H](CO)C(=O)N[C@@H](CC(C)C)C(=O)N[C@@H](Cc1c[nH]c2ccccc12)C(=O)N[C@@H](CCCCN)C(=O)N[C@@H](CCCCN)C(=O)N[C@@H](CC(C)C)C(=O)N[C@@H](CCCCN)C(=O)N[C@@H](CCCCN)C(=O)N[C@@H](Cc1c[nH]c2ccccc12)C(=O)N[C@H](C(=O)N[C@@H](C)C(=O)N[C@@H](CCCCN)C(N)=O)[C@@H](C)CC', 'Candida albicans F7-39/IDE99', 'MIC', 13);

Now for the molecule whose MIC we want.
Asked: For the record `CC[C@H](C)[C@H](NC(=O)[C@H](C)NC(=O)CNC(=O)[C@H](Cc1c[nH]c2ccccc12)NC(=O)[C@H](CCCCN)NC(=O)[C@@H](N)CC(C)C)C(=O)N[C@@H](CC(C)C)C(=O)N[C@@H](CCCCN)C(=O)N[C@@H](Cc1cnc[nH]1)C(=O)N[C@H](C(=O)N[C@H](C(=O)N[C@@H](CCCCN)C(N)=O)[C@@H](C)CC)[C@@H](C)CC` , what value of MIC is listed for Candida albicans F7-39/IDE99?
Given back: 5.1

----------
- Tested on: Shigella dysenteriae ATCC 9752
value kind: MIC

Asked: Find the recorded MIC belonging to `CC(C)C[C@H](NC(=O)[C@H](CC(C)C)NC(=O)[C@H](CCCCN)NC(=O)[C@H](CC(C)C)NC(=O)[C@H](CC(C)C)NC(=O)[C@H](Cc1c[nH]c2ccccc12)NC(=O)[C@H](CCCCN)NC(=O)[C@H](CC(C)C)NC(=O)[C@H](CC(C)C)NC(=O)[C@H](CCCCN)NC(=O)[C@H](CCCCN)NC(=O)[C@@H](N)CC(C)C)C(=O)N[C@@H](CCCCN)C(N)=O` and report it.
Given back: ≥ 122 µM

----------
Below are MIC values recorded for Candida albicans.
Please reply with the bare figure in µM and do not write the unit itself.

INSERT INTO assay_data (compound, unit_info, result) VALUES
  ('NCCCC[C@H](NC(=O)[C@H](Cc1c[nH]c2ccccc12)NC(=O)[C@H](Cc1c[nH]c2ccccc12)NC(=O)[C@H](CCCN=C(N)N)NC(=O)[C@@H](N)CCCCN)C(=O)N[C@@H](Cc1c[nH]c2ccccc12)C(=O)N[C@@H](Cc1c[nH]c2ccccc12)C(=O)N[C@@H](CCCN=C(N)N)C(=O)N[C@@H](CCCN=C(N)N)C(=O)O [KRWWKWWRR]', 'µM', 5.6);

Turning now to a further record.
Asked: Reported MIC, compound NC(=O)[C@H](CCCN=C(N)N)NC(=O)[C@H](Cc1c[nH]c2ccccc12)NC(=O)[C@H](Cc1c[nH]c2ccccc12)NC(=O)[C@H](CCCN=C(N)N)NC(=O)[C@H](CCCN=C(N)N)NC(=O)[C@H](Cc1c[nH]c2ccccc12)NC(=O)[C@H](CCCN=C(N)N)NC(=O)[C@H](CCCN=C(N)N)NC(=O)[C@H](Cc1c[nH]c2ccccc12)NC(=O)[C@H](Cc1c[nH]c2ccccc12)NC(=O)[C@@H](N)CCCN=C(N)N [RWWRRWRRWWR] : ____
Given back: 4

----------
- System: Klebsiella pneumoniae ATCC 700603
value kind: MIC
# output: number + unit

Asked: Give MIC (Klebsiella pneumoniae ATCC 700603) of the following molecule: CC(C)C[C@H](NC(=O)[C@H](CCCCN)NC(=O)[C@H](CCCCN)NC(=O)[C@H](Cc1ccccc1)NC(=O)[C@H](Cc1ccccc1)NC(=O)[C@@H](N)CCCCN)C(=O)N[C@@H](CCCCN)C(=O)N[C@@H](CCCCN)C(=O)N[C@@H](C)C(=O)N[C@H](C(=O)N[C@@H](CCCCN)C(=O)N[C@@H](CCCCN)C(=O)NCC(=O)N[C@@H](Cc1ccccc1)C(=O)N[C@@H](CCCCN)C(=O)N[C@@H](CCCCN)C(=O)N[C@@H](Cc1ccccc1)C(=O)N[C@@H](C)C(=O)N[C@@H](CCCCN)C(=O)N[C@H](C(=O)O)C(C)C)C(C)C [KFFKKLKKAVKKGFKKFAKV]
Given back: 1.3 µM

----------
- Tested on: Bacillus subtilis
- method: ≥ marks a high value that may be exact or a test limit, other limits are often not marked, values filed in µg/mL are converted to µM
value kind: MIC (µM)
Report only the number, with the unit µM understood.

INSERT INTO assay_data (compound, value_kind, result) VALUES
  ('CC[C@H](C)[C@H](NC(=O)[C@H](CC(C)C)NC(=O)[C@@H]1CCCN1C(=O)[C@H](CC(C)C)NC(=O)[C@@H](N)Cc1ccccc1)C(=O)NCC(=O)NCC(=O)N[C@@H](CC(C)C)C(=O)N[C@@H](CC(C)C)C(=O)N[C@@H](CO)C(=O)N[C@@H](CCCCN)C(=O)N[C@@H](CC(C)C)C(=O)N[C@@H](CC(C)C)C(N)=O [FLPLIGGLLSKLL]', 'MIC', 2.83);

Consider the additional compound presented here.
Asked: Record lookup: for Bacillus subtilis, what MIC belongs to CC(=O)N[C@@H](CCCN=C(N)N)C(=O)N[C@@H](Cc1c[nH]c2ccccc12)C(=O)N[C@H](C(=O)N[C@@H](Cc1c[nH]c2ccccc12)C(=O)N[C@@H](CCCN=C(N)N)C(=O)NCC(=O)N[C@@H](CO)C(=O)NCC(=O)N[C@@H](CCCN=C(N)N)C(=O)N[C@@H](Cc1c[nH]c2ccccc12)C(=O)N[C@H](C(=O)N[C@@H](Cc1c[nH]c2ccccc12)C(=O)N[C@@H](CCCN=C(N)N)C(N)=O)[C@@H](C)O)[C@@H](C)O [RWTWRGSGRWTWR] ?
Given back: 8.93
